- measured on: human vanin-1 (Homo sapiens (Human))
property label: IC50 (nM)

Examples with their reported IC50 follow.
O=C(Nc1ncc(C(=O)N2CCC3(CCOCC3)C2)cn1)c1cncnc1; 8800
O=C(c1cnc(NCc2cccnc2)nc1)N1C[C@H]2CCC[C@@H](O)[C@H]2C1 (relative stereo); 1.69
O=C(c1cnc(NC2(c3cncnc3)CC2)nc1)N1CC2C(C1)C2C(F)(F)F (centres unmarked); 100
CCOCC1(F)CCN(C(=O)c2cnc(NC3(c4cncnc4)CC3)nc2)CC1; 50.9

1. O=C(c1cnc(NC2(c3cncnc3)CC2)nc1)N1CC2CCC1CO2 (centres unmarked)
2. O=C(c1cnc(NC2(c3cncnc3)CC2)nc1)N1C[C@@H](F)C[C@@H]1CO
q: Could you kindly indicate whether 1 or 2 has the higher IC50 value? Please indicate the selected item by its label.
a: 2

P. O=C(c1cnc(NC2(c3cncnc3)CC2)nc1)N1CCCOCC1
Q. O=C(c1cnc(NC2(c3cncnc3)CC2)nc1)N1CCN2C[C@@H](F)C[C@H]2C1
R. Cc1ccc(C(C)Nc2ncc(C(=O)N3CCC4(CCOCC4)C3)cn2)nc1 (centres unmarked)
S. N#CCC1CCCCN1C(=O)c1cnc(NCc2cccnc2)nc1 (centres unmarked)
q: I would appreciate it if you could sort these 4 molecules by IC50, starting from the smallest number. Reply with the item labels sorted in the order that was asked for.
a: Q, R, P, S
(Q: 5.42 nM, R: 8.06 nM, P: 35.1 nM, S: 156 nM)

a. COC1CCCN(C(=O)c2cnc(NC3(c4cncnc4)CC3)nc2)C1 (centres unmarked)
b. O=C(c1cnc(NC2(c3ncccn3)CC2)nc1)N1CCC2(CCOCC2)C1
c. C[C@@H]1CCCN1C(=O)c1cnc(NC2(c3cncnc3)CC2)nc1
d. CO[C@@H]1CN(C(=O)c2cnc(NC3(c4cncnc4)CC3)nc2)C[C@H]1F
q: Order the 4 molecules from highest to lowest IC50. Reply with the item labels sorted in the order that was asked for.
a: c, d, a, b

P. O=C(c1cnc(NC2(c3cncnc3)CC2)nc1)N1CCC(C(F)(F)F)C1 (single isomer, unassigned)
Q. O=C(c1cnc(NC2(c3cncnc3)CC2)nc1)N1CCC(c2cc[nH]n2)C1 (centres unmarked)
q: Of P and Q , which shows the smaller IC50 value? Please indicate the selected item by its label.
a: Q

* * *

- measured on: human vanin-1 present in human plasma (Homo sapiens (Human))
- assay: Vanin-1 in Human Plasma Assay
- test settings: 50% pooled human plasma, 50 uM substrate
property label: IC50 (µM)

Examples with their reported IC50 follow.
C[C@@H](Nc1ncc(C(=O)N2CCC3(CCOCC3)C2)cn1)c1cncnc1; 0.0356
Cc1ccc(CNc2ncc(C(=O)N3CC4(CCOCC4)C3)cn2)cn1; 0.0174
O=C(c1cnc(NC2(c3cncnc3)CC2)nc1)N1CCCC1; 0.068
C[C@H](Nc1ncc(C(=O)N2CCC3(CCOCC3)C2)cn1)c1ccncn1; 0.0275

a. COC1CCCN(C(=O)c2cnc(NC3(c4cncnc4)CC3)nc2)C1 (stereo not drawn)
b. Cc1ncc(CNc2ncc(C(=O)N3CCC4(CCOCC4)C3)cn2)cn1
q: Of a and b , which shows the smaller IC50 value? Please indicate the selected item by its label.
a: a

* * *

- measured on: human vanin-1 present in human plasma (Homo sapiens (Human), UniProt O95497)
- Sequence (O95497 22-491): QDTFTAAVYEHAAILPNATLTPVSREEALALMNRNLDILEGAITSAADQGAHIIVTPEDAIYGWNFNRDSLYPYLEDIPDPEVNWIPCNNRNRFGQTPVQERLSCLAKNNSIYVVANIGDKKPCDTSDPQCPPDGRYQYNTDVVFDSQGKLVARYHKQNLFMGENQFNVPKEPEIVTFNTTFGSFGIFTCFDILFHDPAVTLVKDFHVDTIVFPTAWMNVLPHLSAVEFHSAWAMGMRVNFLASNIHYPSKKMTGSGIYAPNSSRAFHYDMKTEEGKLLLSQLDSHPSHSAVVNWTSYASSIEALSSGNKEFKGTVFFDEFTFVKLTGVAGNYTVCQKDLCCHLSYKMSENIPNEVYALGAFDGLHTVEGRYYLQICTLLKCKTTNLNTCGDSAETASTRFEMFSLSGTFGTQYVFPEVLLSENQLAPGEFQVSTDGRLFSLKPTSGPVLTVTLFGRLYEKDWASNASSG
- assay: Vanin-1 in Human Plasma Assay
- test settings: 50% pooled human plasma, 50 uM substrate
property label: IC50 (nM)

O=C(c1cnc(NC2(c3cncnc3)CC2)nc1)N1CCCCC1; 12.4
O=C(c1cnc(NC2(c3cncnc3)COC2)nc1)N1CCC2(CCOCC2)C1; 0.524
Cc1ccc(CNc2ncc(C(=O)N3CCC4(CCOCC4)C3)cn2)cn1; 5.02
O=C(c1cnc(NC2(c3cnccn3)CCC2)nc1)N1CCC2(CCOCC2)C1; 0.743
O=C(c1cnc(NC2(c3cnccn3)CC2)nc1)N1CC2(CCOCC2)C1; 2.03

P. C[C@H](Nc1ncc(C(=O)N2CC3(CCOCC3)C2)cn1)c1cnccn1
Q. O=C(c1cnc(NCc2cncnc2)nc1)N1CC2(CCOCC2)C1
q: Of P and Q , which shows the smaller IC50 value? Please indicate the selected item by its label.
a: P

Values were extracted from patent US10906888B2.
